# MEASUREMENT NOTES: folding stability dG unfold from chymotrypsin proteolysis; higher = more stable
Form field: folding stability dG unfold (one value per entry).

BIOSEQUENCE	MEASUREMENT UNIT	folding stability dG unfold
SAGGSAGGSAGGMVIVKVHLPNGNTLTFVFPGMTLDEIREELASQGGKIKEIEIVPMENSAGGSAGGSAGGS [r10_572_TrROS]	kcal/mol	2.32
SAGGSMLIKIKLPKNNPLRDKIVEKLKKSPYVKDVKVKRLKELPNYEIFLIEVDGDPKVADEIKKLASAGGS [r16_394_TrMRF]	kcal/mol	3.08
SADHKFEIDINVFEHDGWRYIMIPVKYDDPQDVDEAAEKILREFGIPPNFNVNVMRSPNEVWINIRIPYSAG [r14_804_TrROS]	kcal/mol	2.85
SAGGSAGGSPGFIIRVRTWERDPKDGKWKPKRERPLTFPPDDADDFADKLNSESPNVEVEIMPSAGGSAGGS [r12_342_TrROS]	kcal/mol	-0.259
SAGMPKPVVTPVTLPVNGALITFTVDPEVPLATFTFDEPDVNAVAEEYAKERAAELEKAGIPTKIVPSSAGG [r19_354_JUSTAS]	kcal/mol	0.743
SAGGSAGGSAGGMEISEKLREYIEKLGKKVSEEEALAIAEEKAKELKEKGIEDVTIVLPVSAGGSAGGSAGG [r7_512_JUSTAS]	kcal/mol	0.374
SAGGSAGGAEIVEIEVRKEKRPDGKEVLTVKVKIKLENGEEIEVTVREGMTLEEALKKAKELLKSAGGSAGG [r6_986_TrROS_Hall]	kcal/mol	2.75
SAGGSAGGSAGGMVTTLEVTVSPDGVITVTTVTTDAAGTPVTTTTTTTVLGPGGPVLAVSAGGSAGGSAGGS [r10_484_JUSTAS]	kcal/mol	2
SAGGGKTVVLVTHPDGTPTTITFDPEKPVATITYPDGTTETLPVPPDKTIADLAKALPADYTAVFAPASAGG [r13_696_TrMRF]	kcal/mol	0.696
SAGGATIEIKELGRDEDTWYFLVTDPGSAEAVKDFIEKFIPPDYDAKIKILSVDPETGKVTALIEIPGSAGG [r13_491_TrMRF]	kcal/mol	2.69
SAGGSAGGSATATVTPHEGAWTVTVTGPDSTETFTFEADEETVREFVELLKAPDVDIDPVPGSAGGSAGGSA [r18_103_TrMRF]	kcal/mol	1.12
SAGGSSGSMSPVLSLFEPGTGVVTYLLKKNDKLYLLVSTGSPGVPPVPSSVSPANLAAGDPVWATAGSAGGS [r16_809_JUSTAS]	kcal/mol	0.77
SAGGSAGGSAGGPLIVFERNADGTLTAVAVDEETGEVTVTRVTLKDGKLTVETETLPLDESAGGSAGGSAGG [r7_28_TrROS_Hall]	kcal/mol	1.82
SAGLLEVLRKIAEELGWELTSVEVHELPDGSVVATGEFRKGDRTYRVDIRYDPETGRVEVRLEPVPVPESAG [r14_784_TrMRF]	kcal/mol	5.51
SAGGMLPGEPEVELVLEIEIDVPPGEISAEELERLLRELFPGAEVVDVRVEEEGGKLRIEVVIRLPPSAGGS [r8_202_TrROS_Hall]	kcal/mol	2.67
SAMKVTITVTKHTLPDGTPYYTVTITDPSTGKTFSGPVSSEEEAKATAQALADKIEAEGTPVTITFTDDSAG [r14_263_JUSTAS]	kcal/mol	4.03
SAGGSGMTTTFSKEVSSKEEAEKIFKRGFPDLNAKVTKFDPKKGTVEIELTFPDGKKSKATAPIKKSAGGSA [r2_201_JUSTAS]	kcal/mol	0.0996
SAGGSAGGSASMSPEELAEKYREEYEKKYGIPAVEVKVEVIPEEEKYVITIKLPGSEITVIVSAGGSAGGSA [r18_145_JUSTAS]	kcal/mol	2.74
SAGGSAMKAKEIKRLKLKDRPLVVIFLENPEGGYSVLVIPLENPEKVEELLEELVKEGLLDEITPESAGGSA [r15_575_TrMRF]	kcal/mol	1.93
SAGMTLKEEEFELPDGSRRIRLTFTSEEELAAKLKELGFEKFNPLSPSESVDVTIPPDGVLSESLPKEGSAG [r5_941_JUSTAS]	kcal/mol	1.86
SAGGSAMYKVEVTATTSSSSTPYPLEMDFETEEEAKERVKKYLEEKYGDPISSIETKIEPVEPGLESAGGSA [r15_670_JUSTAS]	kcal/mol	-0.645
SAGGKKKKKKPKIVRVKITLKNENGEEIEIDEAVILPDGTILIRDKKTGKIFEIKLDDITKIEIEEVSAGGS [r8_410_TrROS_Hall]	kcal/mol	3.02
SAGGTTTRTTVYFDDGKVYELTDPEEVEKTIKEKLGKNYKIVSEEEYTEPSPDGPPLPARRLKLKKKSAGGS [r16_408_JUSTAS]	kcal/mol	-0.795
SAGGSAGGPPVEERELTLPDGTRLTITRYPDSYTVEVTLPDGTVETRTYPDVTPEEAVAAVKAASAGGSAGG [r6_459_JUSTAS]	kcal/mol	1.93
SAGAVRPDEPVTVTVTVEVDPETGFVRVTFDAAAPDGITVEALIPPDGPVLVRVRRPGSRETVEVVLPASAG [r5_55_TrMRF]	kcal/mol	3.31
SAGGSAGGSAGSAPAGALVTEEVSLEETETFFDPTTKKPLRTVRVTVPVKRERVVSPALPSAGGSAGGSAGG [r11_970_JUSTAS]	kcal/mol	-0.795
SAKLAEEIAKKILPEVKEVKILKIEVKKDPKSKFKVIKIEMLVKMPKGEKKIKIEIKPGKPKIKIIPLDSAG [r14_397_TrMRF]	kcal/mol	2.85

====

# MEASUREMENT NOTES: folding stability dG unfold from trypsin proteolysis; higher = more stable
ATTRIBUTE MEASURED: folding stability dG unfold (kcal/mol)

BIOSEQUENCE	MEASUREMENT UNIT	ENDPOINT RESULT
SAGGSAGGSAGPKIPKNYKIVATYTVPPTNKKKLILYDPKTNKPLIFDTVSGKIYPFGKKSAGGSAGGSAGG [r11_268_TrMRF]	kcal/mol	1.59
SAGGMNVSYLFSKSVPKEEIEAYLKKLDPNKKYKFEELEPEEIEKLPESIEVIEKPVDETLRLVLVEESAGG [r13_649_JUSTAS]	kcal/mol	-0.323
SAGGMYVEVVIDNPDPDISPEELAEEVARELAPDPFEIKPVKIEPELIGGIPKVTILFEVDDPEAVEESAGG [r13_979_TrMRF]	kcal/mol	0.238
SAGGSARVVILPDGYLLVEVDGKPFLFGPNDEVEIEEEGDELILRLRLRDKDGKEVGEFPFRFRLESAGGSA [r15_424_TrMRF]	kcal/mol	2.71
SAGGSAGGSMEVTYDEETGELTVRIEVDGKTLTLKFKSIEDLKAALEKLGIDVDDVKIVEIEPSAGGSAGGS [r12_834_TrROS_Hall]	kcal/mol	4.18
SAGGSAGGSAGGMKIKTITGDPSTGVYTITFPDGKVETIPMTQEEVEALAKENPGIEITLSAGGSAGGSAGG [r7_175_JUSTAS]	kcal/mol	0.899
SETVEIEIELPDGTKVTITVDKDGKVHITIEVPEDNPELLEKGSIEELAKKLAEELGLSEKDVEVTVLPPSA [r9_401_TrROS_Hall]	kcal/mol	2.98
SAGGSAMPDMTAEELAAEVAKKLPPGEKVLIKIRNKNGETKTFELGEDISDLPADEVTEIEIEVLPSAGGSA [r15_50_TrROS_Hall]	kcal/mol	0.248
SAGGSAGGSAGSMPIVLRAEFPSNDETVEIPVTSPEEAERVAQELAAQPDWPLEKVDFGGSAGGSAGGSAGG [r11_951_JUSTAS]	kcal/mol	0.414
SKKPKLKIEIEIPEITNMQPDPDNGKYTMRVPFRIKIEWKDNGKEREVDIPIPMNMTVDDARDQLKDLLKSA [r9_656_TrROS]	kcal/mol	0.629
SAGGSAGGSAGKKKKIFLIKIEVVKVKVEKRKKKDGKLEEKVEIEIKIEITEIPLPPELLSAGGSAGGSAGG [r11_24_TrROS_Hall]	kcal/mol	2.81
SAGGSAGGSAESIDAKVTPVALPSGPRYLIEVNNPAAPEIPKSVVEEELAKKYPKERVELLSAGGSAGGSAG [r3_226_JUSTAS]	kcal/mol	-0.516
SAGGSLPPGQWIFMIQLEIEPPNGNTWPFNIMVPPDNVEEQAKEIADRLRENGLKVKIEITDVMPVSAGGSA [r2_274_TrROS]	kcal/mol	2.22
SAGGGSISPAIVAALRAAGASLEEIVAYLNEQGYPIASVLGEEEHHHHHHITLLLPETGETVTVELHSAGGS [r8_179_JUSTAS]	kcal/mol	2.43

====

# MEASUREMENT NOTES: folding stability dG unfold from trypsin proteolysis; higher = more stable
Entries and their folding stability dG unfold
ATTRIBUTE MEASURED: folding stability dG unfold

BIOSEQUENCE	ATTRIBUTE MEASURED	ENDPOINT RESULT
SAGGSKKTIVIPVPPGMSVEQIAAELKAKLEELFPDLKVEVVEVKPDGYVKIKIDGKLILIKFPKPSAGGSA [r2_102_TrROS_Hall]	folding stability dG unfold	1.6 kcal/mol
SKEVKITIEVKEVNGKLYVVVKVEVNGKEETLVFKSLEEAKNAIAKKLGLPKEKIKIKKVEVYKVSKKDLSA [r9_909_TrROS_Hall]	folding stability dG unfold	0.964 kcal/mol
SVVLDVPYENRPDLLATIRALVAEKAPPVVVFVEAPEAERARLRRELEALGFTVEPTPVPNRYRITFRPASA [r9_600_TrMRF]	folding stability dG unfold	3.15 kcal/mol
SAGGELVLLSESESVFTSPDGSRTVVRTLLTERPGDLLVEITTTTTIEPESGAVTTTTTTRVLPRRESAGGS [r8_264_JUSTAS]	folding stability dG unfold	2.33 kcal/mol
SAGMGSDVPVLTAVLSVLNPETGEEVTIEVPGRNDYGEGKLIRPVSPEDLLAAALAVADALLKDPSLKASAG [r5_426_TrMRF]	folding stability dG unfold	1.36 kcal/mol
SQWVIKIKFPNPDGEPVKIIFPVEEIQEIFKEEHGEPSSPQEFADRLAKHHPNVDVEIMPLDDMPPEQLNSA [r9_1085_TrROS]	folding stability dG unfold	-0.998 kcal/mol
SAGGSAGGSAGTIKVNGKTVTITKNKKTGKYTITVTLKNGEKKTFVFPSKEDVEEALKALSAGGSAGGSAGG [r11_238_TrROS_Hall]	folding stability dG unfold	3.27 kcal/mol

The origin of these recorded values is the supplement of paper PMC12764529.
